Hello, the source for this data is patent US8293781B2, in case you need it.

target: cPLA2 crudely purified from the cytoplasm fraction of U937 (Homo sapiens, UniProt P47712); construct: cPLA2 crudely purified from the cytoplasm fraction of U937; endogenous in cells; host or cells: U937 cells (cytoplasm fraction, crude purification); assay: Measurement of cPLA2 inhibitory activity (release of [14C]-arachidonic acid from phosphatidyl choline liposome); format: biochemical; conditions: cPLA2 from U937 cytoplasm fraction, [14C]arachidonyl-phosphatidyl choline liposome, 37° C., 60 minutes; read-out: cPLA2 inhibitory activity, 50% inhibiting concentration IC50
Sequence (P47712 whole entry): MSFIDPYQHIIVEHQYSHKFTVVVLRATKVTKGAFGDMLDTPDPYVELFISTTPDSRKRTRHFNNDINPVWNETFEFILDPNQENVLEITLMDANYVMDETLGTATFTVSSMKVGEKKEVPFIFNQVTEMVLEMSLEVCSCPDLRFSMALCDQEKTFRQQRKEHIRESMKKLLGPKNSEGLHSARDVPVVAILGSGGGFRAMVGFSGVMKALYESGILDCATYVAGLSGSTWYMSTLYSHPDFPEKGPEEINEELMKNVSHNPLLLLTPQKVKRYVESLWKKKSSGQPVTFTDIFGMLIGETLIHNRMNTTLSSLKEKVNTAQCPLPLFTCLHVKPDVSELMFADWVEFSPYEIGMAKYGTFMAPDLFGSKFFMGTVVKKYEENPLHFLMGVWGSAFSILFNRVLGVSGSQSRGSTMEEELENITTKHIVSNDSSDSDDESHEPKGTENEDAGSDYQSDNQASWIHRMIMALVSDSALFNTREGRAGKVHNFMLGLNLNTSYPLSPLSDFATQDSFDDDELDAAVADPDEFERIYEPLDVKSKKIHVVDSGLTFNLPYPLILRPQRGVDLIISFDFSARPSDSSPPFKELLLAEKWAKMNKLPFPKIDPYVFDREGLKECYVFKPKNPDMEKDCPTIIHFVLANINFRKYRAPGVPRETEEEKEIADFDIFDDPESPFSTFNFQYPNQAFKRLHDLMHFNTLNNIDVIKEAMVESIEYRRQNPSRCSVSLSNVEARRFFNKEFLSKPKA
pIC50: −log10 of the molar value. Structures can show the parent of a compound that is named as a salt.
# reported pIC50; entries follow

{"COMPOUND": "O=C(O)CCc1ccc2c(c1)c(CCc1ccccc1)cn2-c1cccc(F)c1 [Example 183]", "SYSTEM TESTED": "cPLA2 crudely purified from the cytoplasm fraction of U937 (Homo sapiens, UniProt P47712)", "LIMIT SIGN": "=", "pIC50": 7.15}
{"COMPOUND": "O=Cc1cccc(-n2cc(CCc3ccccc3)c3cc(CCC(=O)O)ccc32)c1 [Example 175]", "SYSTEM TESTED": "cPLA2 crudely purified from the cytoplasm fraction of U937 (Homo sapiens, UniProt P47712)", "LIMIT SIGN": "=", "pIC50": 6.84}
{"COMPOUND": "CC(=O)Nc1ccc(-n2cc(CCc3ccccc3)c3cc(CCC(=O)O)ccc32)nc1 [Example 140]", "SYSTEM TESTED": "cPLA2 crudely purified from the cytoplasm fraction of U937 (Homo sapiens, UniProt P47712)", "LIMIT SIGN": "=", "pIC50": 6.93}
{"COMPOUND": "Cc1cccc(-n2cc(CCc3ccccc3)c3cc(CCC(=O)O)ccc32)c1 [Example 97]", "SYSTEM TESTED": "cPLA2 crudely purified from the cytoplasm fraction of U937 (Homo sapiens, UniProt P47712)", "LIMIT SIGN": "=", "pIC50": 7.00}
{"COMPOUND": "CCOc1ccc(-n2cc(CCc3ccccc3)c3cc(CCC(=O)O)ccc32)cc1 [Example 112]", "SYSTEM TESTED": "cPLA2 crudely purified from the cytoplasm fraction of U937 (Homo sapiens, UniProt P47712)", "LIMIT SIGN": "=", "pIC50": 7.82}
{"COMPOUND": "O=C(O)CCc1ccc2c(c1)c(CCc1ccccc1)cn2-c1ccc(OC2CCOCC2)cc1 [Example 225]", "SYSTEM TESTED": "cPLA2 crudely purified from the cytoplasm fraction of U937 (Homo sapiens, UniProt P47712)", "LIMIT SIGN": "=", "pIC50": 8.10}
{"COMPOUND": "O=C(CCc1ccc2c(c1)c(CCc1ccccc1)cn2-c1ccc(OC(F)F)cc1)NS(=O)(=O)c1ccccc1 [Example 332]", "SYSTEM TESTED": "cPLA2 crudely purified from the cytoplasm fraction of U937 (Homo sapiens, UniProt P47712)", "LIMIT SIGN": "<", "pIC50": 5.52}
{"COMPOUND": "O=C(O)CCc1ccc2c(c1)c(CCc1ccccn1)cn2-c1cccc(O)c1 [Example 282, hydrochloride]", "SYSTEM TESTED": "cPLA2 crudely purified from the cytoplasm fraction of U937 (Homo sapiens, UniProt P47712)", "LIMIT SIGN": "=", "pIC50": 6.24}
{"COMPOUND": "O=C(O)CCc1ccc2c(c1)c(CCc1ccccc1)cn2-c1ccc(OC2CCCCO2)cc1 (stereo not shown) [Example 214]", "SYSTEM TESTED": "cPLA2 crudely purified from the cytoplasm fraction of U937 (Homo sapiens, UniProt P47712)", "LIMIT SIGN": "=", "pIC50": 8.30}
{"COMPOUND": "O=C(O)CCc1ccc2c(c1)c(CCCc1ccccc1)cn2-c1ccc(O)cc1 [Example 340]", "SYSTEM TESTED": "cPLA2 crudely purified from the cytoplasm fraction of U937 (Homo sapiens, UniProt P47712)", "LIMIT SIGN": "=", "pIC50": 6.25}
{"COMPOUND": "CC(=O)Nc1ccccc1-n1cc(CCc2ccccc2)c2cc(CCC(=O)O)ccc21 [Example 153]", "SYSTEM TESTED": "cPLA2 crudely purified from the cytoplasm fraction of U937 (Homo sapiens, UniProt P47712)", "LIMIT SIGN": "=", "pIC50": 5.10}
{"COMPOUND": "COc1ccccc1-n1cc(CCc2ccccc2)c2cc(CCC(=O)O)ccc21 [Example 109]", "SYSTEM TESTED": "cPLA2 crudely purified from the cytoplasm fraction of U937 (Homo sapiens, UniProt P47712)", "LIMIT SIGN": "=", "pIC50": 6.65}
{"COMPOUND": "O=C(CCc1ccc2c(c1)c(CCc1ccccc1)cn2-c1ccc(OC(F)F)cc1)NO [Example 286]", "SYSTEM TESTED": "cPLA2 crudely purified from the cytoplasm fraction of U937 (Homo sapiens, UniProt P47712)", "LIMIT SIGN": "<", "pIC50": 5.52}
{"COMPOUND": "O=C(O)CCc1ccc2c(c1)c(CCc1ccccc1)cn2-c1ccc(OCCc2ccncc2)cc1 [Example 255]", "SYSTEM TESTED": "cPLA2 crudely purified from the cytoplasm fraction of U937 (Homo sapiens, UniProt P47712)", "LIMIT SIGN": "=", "pIC50": 7.92}
{"COMPOUND": "CC(Cc1cn(-c2ccccc2)c2ccc(/C=C/C(=O)O)cc12)c1ccccc1 (stereo not shown) [Example 33]", "SYSTEM TESTED": "cPLA2 crudely purified from the cytoplasm fraction of U937 (Homo sapiens, UniProt P47712)", "LIMIT SIGN": "=", "pIC50": 6.18}
{"COMPOUND": "O=C(O)/C=C/c1ccc2c(c1)c(CCc1ccccc1)cn2-c1ccc(OCc2ccccc2)cc1 [Example 144]", "SYSTEM TESTED": "cPLA2 crudely purified from the cytoplasm fraction of U937 (Homo sapiens, UniProt P47712)", "LIMIT SIGN": "=", "pIC50": 7.38}
{"COMPOUND": "O=C(O)CCc1ccc2c(c1)c(CCc1ccccc1)cn2-c1ccc(OCCOCc2ccccc2)cc1 [Example 342]", "SYSTEM TESTED": "cPLA2 crudely purified from the cytoplasm fraction of U937 (Homo sapiens, UniProt P47712)", "LIMIT SIGN": "=", "pIC50": 8.70}
{"COMPOUND": "O=C(O)CCc1ccc2c(c1)c(CCc1ccccn1)cn2-c1cccc(OCc2ccccc2)c1 [Example 281, hydrochloride]", "SYSTEM TESTED": "cPLA2 crudely purified from the cytoplasm fraction of U937 (Homo sapiens, UniProt P47712)", "LIMIT SIGN": "=", "pIC50": 6.56}
{"COMPOUND": "N#CNC(=O)CCc1ccc2c(c1)c(CCc1ccccc1)cn2-c1ccccc1 [Example 18]", "SYSTEM TESTED": "cPLA2 crudely purified from the cytoplasm fraction of U937 (Homo sapiens, UniProt P47712)", "LIMIT SIGN": "=", "pIC50": 6.01}
